Sourced from ChEMBL document CHEMBL4316592

Tested on: Mahlavu
Test: Induction of apoptosis in human Mahlavu cells assessed as viable cells at 1 uM after 48 hrs by Annexin V-FITC/propidium iodide staining-based flow cytometric analysis (reference value: 98.48%)
Assay type: functional
Conditions: read-out: Activity
Metric name: viability at 1 µM (%)
Numbers only, in %.

# Compound, Measured result
data = [
    ("COc1ccc2c3c(c4cc(OC)c(OC)cc4c2c1)CN1CCCCC1C3O (racemic)", 99),
    ("COc1ccc2c3c(c4cc(OC)c(OC)cc4c2c1)CN1CCCC[C@@H]1[C@@H]3O (racemic)", 70.2),
    ("COc1ccc2c3c(c4cc(OC)c(OC)cc4c2c1)CN1CCCC[C@@H]1C3", 91.8),
]

Next item in the queue.
Prompt: Returns the measured viability at 1 µM for the input compound. Input: COc1ccc2c3c(c4cc(OC)c(OC)cc4c2c1)CN1CCCC[C@@H]1[C@H]3O (racemic)
Response: 93.8

====

Tested on: Mahlavu
Experiment: Induction of apoptosis in human Mahlavu cells assessed as late apoptotic cells at 1 uM after 72 hrs by Annexin V-FITC/propidium iodide staining-based flow cytometric analysis (reference value: 3.48%)
Format: functional
Metric name: Activity (%)
Answers are plain numbers, in %.

Consider the following illustrative entries.
# Compound, Study target, Activity (%)
records = [
    ("COc1ccc2c3c(c4cc(OC)c(OC)cc4c2c1)CN1CCCC[C@@H]1[C@H]3O (racemic)", "Mahlavu", 10.53),
    ("COc1ccc2c3c(c4cc(OC)c(OC)cc4c2c1)CN1CCCC[C@@H]1[C@@H]3O (racemic)", "Mahlavu", 69.05),
    ("COc1ccc2c3c(c4cc(OC)c(OC)cc4c2c1)CN1CCCC[C@@H]1C3", "Mahlavu", 12.74),
]

Next item in the queue.
Prompt: So what's the measured Activity for this one? COc1ccc2c3c(c4cc(OC)c(OC)cc4c2c1)CN1CCCCC1C3O (racemic)
Response: 35.08

====

Test system: HCT-116
Experiment: Cytotoxicity against human HCT116 cells after 72 hrs by SRB assay
Type: functional, cell-based
Details: Homo sapiens, HCT-116, 72 h; read-out: IC50
For each record, write down the corresponding IC50.
One number for each entry, in µM.

// for each compound below, give its IC50
1. COc1ccc2c3c(c4cc(OC)c(OC)cc4c2c1)CN1CCCCC1C3=O (stereo not given)
2. COc1ccc2c3c(c4cc(OC)c(OC)cc4c2c1)CN1CCCC[C@@H]1[C@H]3O (racemic)
3. COc1ccc2c3c(c4cc(OC)c(OC)cc4c2c1)CN1CCCC[C@@H]1[C@@H]3O (racemic)
4. COc1ccc2c3c(c4cc(OC)c(OC)cc4c2c1)CN1CCCC[C@@H]1C3

Response:
1. 8.1
2. 0.043
3. 0.007
4. 0.7

====

Please provide measured Activity for the entries that follow.
Test system: Mahlavu
Assay: Induction of apoptosis in human Mahlavu cells assessed as necrotic cells at 1 uM after 24 hrs by Annexin V-FITC/propidium iodide staining-based flow cytometric analysis (reference value: 0.13%)
Type: functional
Answers are plain numbers, in %.

# count of solved cases: 3
# Compound, Reading unit, Activity
rows = [
    ("COc1ccc2c3c(c4cc(OC)c(OC)cc4c2c1)CN1CCCC[C@@H]1[C@H]3O (racemic)", "%", 0.33),
    ("COc1ccc2c3c(c4cc(OC)c(OC)cc4c2c1)CN1CCCCC1C3O (racemic)", "%", 0.13),
    ("COc1ccc2c3c(c4cc(OC)c(OC)cc4c2c1)CN1CCCC[C@@H]1C3", "%", 0.57),
]

// switching to the query compound
Prompt: // returns reported Activity for input COc1ccc2c3c(c4cc(OC)c(OC)cc4c2c1)CN1CCCC[C@@H]1[C@@H]3O (racemic)
Response: 0.58

====

For each record, write down the corresponding Activity.
Tested on: Huh-7
Assay: Induction of apoptosis in human HuH7 cells assessed as late apoptotic cells at 1 uM after 48 hrs by Annexin V-FITC/propidium iodide staining-based flow cytometric analysis (reference value: 2.53%)
Type: functional
Numbers only, in %.

Before answering, review these 3 worked examples.
# Compound, Reading unit, Measured result
data = [
    ("COc1ccc2c3c(c4cc(OC)c(OC)cc4c2c1)CN1CCCC[C@@H]1[C@@H]3O (racemic)", "%", 6.75),
    ("COc1ccc2c3c(c4cc(OC)c(OC)cc4c2c1)CN1CCCCC1C3O (racemic)", "%", 5.52),
    ("COc1ccc2c3c(c4cc(OC)c(OC)cc4c2c1)CN1CCCC[C@@H]1[C@H]3O (racemic)", "%", 3.38),
]

Prompt: Requested read-out Activity, target or system Huh-7, entry COc1ccc2c3c(c4cc(OC)c(OC)cc4c2c1)CN1CCCC[C@@H]1C3
Response: 5.96

====

System: Mahlavu
Test: Induction of apoptosis in human Mahlavu cells assessed as late apoptotic cells at 1 uM after 48 hrs by Annexin V-FITC/propidium iodide staining-based flow cytometric analysis (reference value: 1.45%)
Type: functional
Provide the recorded Activity for the entries that follow.
Give bare numbers, in %.

# annotated cases, reported Activity shown
# Molecule, Measured result
data = [
    ("COc1ccc2c3c(c4cc(OC)c(OC)cc4c2c1)CN1CCCCC1C3O (racemic)", 0.98),
    ("COc1ccc2c3c(c4cc(OC)c(OC)cc4c2c1)CN1CCCC[C@@H]1[C@@H]3O (racemic)", 29.29),
    ("COc1ccc2c3c(c4cc(OC)c(OC)cc4c2c1)CN1CCCC[C@@H]1C3", 7.07),
]

Attention now turns to another entry.
Prompt: Return Activity measured with Mahlavu given this molecule: COc1ccc2c3c(c4cc(OC)c(OC)cc4c2c1)CN1CCCC[C@@H]1[C@H]3O (racemic)
Response: 5.9

====

Test system: SNU-475
Assay: Cytotoxicity against human SNU475 cells after 72 hrs by SRB assay
Assay type: functional, cell-based
Details: Homo sapiens, SNU-475, 72 h; read-out: IC50
I'd appreciate it if you could supply IC50 values for the items below.
One number for each entry, in nM.

Illustrative cases are given below, each with its answer.
# Compound, Reading unit, Measured result
measured = [
    ("COc1ccc2c3c(c4cc(OC)c(OC)cc4c2c1)CN1CCCC[C@@H]1C3", "nM", 14),
    ("COc1ccc2c3c(c4cc(OC)c(OC)cc4c2c1)CN1CCCCC1C3=O (stereo not drawn)", "nM", 19100),
]

Here's the next entry for you.
Prompt: I have this compound here, COc1ccc2c3c(c4cc(OC)c(OC)cc4c2c1)CN1CCCCC1C3O (racemic) , and I need its recorded IC50.
Response: 15

====

Hi there, I'd appreciate the recorded viability at 1 µM for every entry that follows.
System: Huh-7
Assay: Induction of apoptosis in human HuH7 cells assessed as viable cells at 1 uM after 24 hrs by Annexin V-FITC/propidium iodide staining-based flow cytometric analysis (reference value: 97.30%)
Format: functional
Details: Huh-7, 24 h, read-out: Activity
One number for each entry, in %.

Please review the entries below; each comes with its answer.
# Compound, viability at 1 µM [%]
rows = [
    ("COc1ccc2c3c(c4cc(OC)c(OC)cc4c2c1)CN1CCCC[C@@H]1C3", 98.9),
    ("COc1ccc2c3c(c4cc(OC)c(OC)cc4c2c1)CN1CCCC[C@@H]1[C@@H]3O (racemic)", 99.1),
    ("COc1ccc2c3c(c4cc(OC)c(OC)cc4c2c1)CN1CCCCC1C3O (racemic)", 99.1),
]

Let us examine a further case.
Prompt: // lookup viability at 1 µM for COc1ccc2c3c(c4cc(OC)c(OC)cc4c2c1)CN1CCCC[C@@H]1[C@H]3O (racemic)
Response: 99.1

====

System: Mahlavu
Assay: Induction of apoptosis in human Mahlavu cells assessed as necrotic cells at 1 uM after 72 hrs by Annexin V-FITC/propidium iodide staining-based flow cytometric analysis (reference value: 0.22%)
Type: functional
Metric name: Activity (%)
Answers are plain numbers, in %.

Known Activity results, listed for orientation:
# Molecule, Study target, Reading unit, Measured result
data = [
    ("COc1ccc2c3c(c4cc(OC)c(OC)cc4c2c1)CN1CCCC[C@@H]1[C@H]3O (racemic)", "Mahlavu", "%", 0.61),
    ("COc1ccc2c3c(c4cc(OC)c(OC)cc4c2c1)CN1CCCC[C@@H]1[C@@H]3O (racemic)", "Mahlavu", "%", 1.59),
    ("COc1ccc2c3c(c4cc(OC)c(OC)cc4c2c1)CN1CCCC[C@@H]1C3", "Mahlavu", "%", 1.84),
]

Prompt: Given the entry COc1ccc2c3c(c4cc(OC)c(OC)cc4c2c1)CN1CCCCC1C3O (racemic) , report its measured Activity.
Response: 2.26
